Biological target: T1, human PRLR on cells (human, UniProt P16471 25-622)
T1 sequence: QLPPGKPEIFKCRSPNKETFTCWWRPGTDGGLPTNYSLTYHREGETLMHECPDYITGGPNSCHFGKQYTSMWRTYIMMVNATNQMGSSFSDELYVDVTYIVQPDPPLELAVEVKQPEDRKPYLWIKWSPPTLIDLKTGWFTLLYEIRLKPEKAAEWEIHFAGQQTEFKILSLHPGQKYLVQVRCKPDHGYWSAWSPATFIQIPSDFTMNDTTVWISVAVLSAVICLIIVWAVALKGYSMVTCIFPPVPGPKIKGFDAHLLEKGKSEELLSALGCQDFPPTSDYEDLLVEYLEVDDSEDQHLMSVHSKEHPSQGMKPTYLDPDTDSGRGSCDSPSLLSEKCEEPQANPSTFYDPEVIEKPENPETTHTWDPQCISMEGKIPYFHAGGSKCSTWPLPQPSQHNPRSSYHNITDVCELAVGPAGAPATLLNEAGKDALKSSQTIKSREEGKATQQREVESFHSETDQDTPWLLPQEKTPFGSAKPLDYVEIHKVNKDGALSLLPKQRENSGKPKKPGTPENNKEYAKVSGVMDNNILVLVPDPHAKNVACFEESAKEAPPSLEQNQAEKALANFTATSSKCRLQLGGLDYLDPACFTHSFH
Experiment: cell-based or functional assay
Reported T47D pPRLR ELISA IC50 is given for each of the following binders.
Give the number first and the unit second.

Example cases with answers are listed next.
Ab12 (antibody, V domains shown, murine monoclonal, isotype G2a; reported as PRLR agonist; also called murine Ab12) VH: DVQLQESGPGLVKPSQSLSLTCTVTGYSITSDYAWNWIRQFPGNKLEWMGYIGYSGRTSFNPSLKSRISITRDTSKNQFFLQLNSVTTEDTATYYCARGGFAMDYWGQGTSVTVSS VL: QIVLTQSPGIMSASPGEKVTMTCSASSSVTYMYWYQQKPRSSPKPWIYLTSNLASGVPARFSGSGSGTSYSLTISSMEAEDGATYYCQQWSSTPPLTFGGGTKLELN | 0.538 µg/mL
Ab13 (antibody, V domains shown, murine monoclonal, isotype G2a; also called murine Ab13) VH: QVQLQQPGAELVRPGTSVKLSCKASGYTFTSFWMHWVKQRPGQGLEWIGVIDPSDSHTNYNQKFKGKATLTVNTSSSTAYMHLSSLTSEDSAVYYCARGDYSNWFTYWGQGTLVTVSA VL: DVVMTQTPFSLPVSLGDQASISCRSSQSLVHSNGNTYLHWYLQKPGQSPKLLIYKVSNRFSGVPDRFSGSGSGTDFTLKISRVEAEDLELYFCSQSTHVPWTFGGGTKLEIK | 0.047 µg/mL
Ab7 (antibody, V domains shown, murine monoclonal, isotype G1; also called murine Ab7) VH: QVQLQQPGAELVMPGTSVKLSCKASGYTFTSYWIHWVKQRPGQGLEWIGEIDPSDSYTNYNQKFKGKATLTVDRSSSTAYMQLSSLTSEDSAVYYCGRSFFTNWFAYWGQGTLVTVSA VL: DVVMTQTPLSLPVSLGDQASISCRSSQSLVHSNGNTYLHWYLQKPGQSPKLLIYKVSNRFSGVPDRFSGSGSGTDFTLKINRVEAEDLGVYFCSQSTHVPFTFGSGTKLEIK | 0.08 µg/mL
Ab5 (antibody, V domains shown, murine monoclonal, isotype G2a; also called murine Ab5) VH: QVQLQQPGAELVRPGTSVKLSCKASGYTFTSFWMHWVKQRPGQGLEWIGVIDPSDTYTNYNQKFKGKATLTVDTSSSTAYMQLSSLTSEDSAVYYCARGDYSNWFTYWGQGTLVTVSA VL: DVVMTQTPLSLPVSLGDQASISCRSSQRLVHSNGNTYLHWYLQKPGQSPKLLIYKVSNRFSGVPDRFSGSGSGTDFTLKISRVEAEDLGVYFCSQSTHVPWTFGGGTKLEIK | 0.038 µg/mL

From here, focus on the item given below.
// lookup T47D pPRLR ELISA IC50 for Ab6 (antibody, V domains shown, murine monoclonal, isotype G1; also called murine Ab6) VH: QVQLQQPGAELVMPGSSVKLSCKASGYTFTTYWMHWVKQRPGQGLEWIGEIDPSDSYSNYNQKFKDKATLTVDKSSSTAYMQLSSLTSEDSAVYYCARNGGLGPAWFSYWGQGTLVTVSA VL: DIVMTQSQKFMSTTVGDRVSITCKASQYVGTAVAWYQQKPGQSPKLLIYSASNRYTGVPDRFTDSGSGTDFTLTISNLQSEDLADYFCQQYSSYPWTFGGGTKLEIK
0.039 µg/mL
